src = PubChem BioAssay

Molecular target: Nuclear receptor subfamily 5 group A member 2 (Homo sapiens) (UniProt O00482)
Sequence (O00482 whole entry, looked up): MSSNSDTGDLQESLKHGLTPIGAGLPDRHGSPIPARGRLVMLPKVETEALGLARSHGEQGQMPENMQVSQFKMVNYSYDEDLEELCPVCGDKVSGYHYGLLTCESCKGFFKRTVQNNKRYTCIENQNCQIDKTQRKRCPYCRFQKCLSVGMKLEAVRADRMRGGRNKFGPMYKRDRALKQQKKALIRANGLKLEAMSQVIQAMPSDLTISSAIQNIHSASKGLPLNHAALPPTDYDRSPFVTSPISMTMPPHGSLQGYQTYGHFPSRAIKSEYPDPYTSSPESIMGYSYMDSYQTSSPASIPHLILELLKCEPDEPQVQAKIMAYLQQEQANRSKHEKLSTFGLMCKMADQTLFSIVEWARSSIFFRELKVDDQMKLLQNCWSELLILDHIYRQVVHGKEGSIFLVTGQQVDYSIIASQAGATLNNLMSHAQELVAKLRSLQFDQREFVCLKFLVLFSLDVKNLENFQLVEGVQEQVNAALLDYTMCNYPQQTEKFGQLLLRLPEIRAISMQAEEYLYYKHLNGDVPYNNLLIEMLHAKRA
Assay: LRH-1 (NR5A2) inverse agonists, retest, confirmation, cell-based, luminescence (AID 651613);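 note: HEK293T cells co-transfected with LRH-1 and StAR promoter luciferase reporter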
Conditions: cell-based LRH-1 luciferase reporter, inverse agonism; at 3.6 µM; stronger effect = higher value
Classify by measured inhibition: rule met if it is equal to or exceeds 60%, rule not met if it is smaller.

INPUT: // inclusive: inhibition at least 60%? input: Cn1c2c(c(=O)n(C)c1=O)C(C(F)(F)F)(C(F)(F)F)N=C(c1ccc(Cl)cc1)N2
OUTPUT: rule met

INPUT: // inclusive: inhibition at least 60%? input: COc1cc(NC(=O)c2ccc([N+](=O)[O-])o2)ccc1NC(=O)c1ccco1
OUTPUT: rule met

INPUT: // inclusive: inhibition at least 60%? input: CN(C)CCNc1ccc(CO)c2oc3ccc(O)cc3c(=O)c12
OUTPUT: rule not met

INPUT: // inclusive: inhibition at least 60%? input: COc1cc2c(oc(=O)c3cc(C)cc(OC)c32)c2c(C3OC(C)C(O)C(C)(O)C3O)ccc(O)c12 (stereo not drawn)
OUTPUT: rule met

INPUT: // inclusive: inhibition at least 60%? input: COc1cc(C2c3cc4c(cc3OC(NNC(N)=S)C2C)OCO4)cc(OC)c1OC (stereo not drawn)
OUTPUT: rule not met

INPUT: // inclusive: inhibition at least 60%? input: O=c1[nH]cnc2c1nnn2C1OC(CO)C(O)C1O (stereo not drawn)
OUTPUT: rule met

INPUT: // inclusive: inhibition at least 60%? input: COc1cc(-c2cnc3c(NC=O)cc(-c4cccc(NC(C)=O)c4)cn23)cc(OC)c1OC
OUTPUT: rule met

INPUT: // inclusive: inhibition at least 60%? input: O=C(c1ccccc1)c1cc(-c2ccccn2)c(N2CCOCC2)s1
OUTPUT: rule met

INPUT: // inclusive: inhibition at least 60%? input: CCOc1cc(/C=N/Nc2nnc(C)n2N)ccc1O
OUTPUT: rule not met

INPUT: // inclusive: inhibition at least 60%? input: CC(=O)c1ccc(-c2cnc3c(NC=O)cc(-c4ccc(S(C)(=O)=O)cc4)cn23)cc1
OUTPUT: rule met

INPUT: // inclusive: inhibition at least 60%? input: CN1OC[C@@H]2CN[C@H](c3ccc(-c4cc5ccccc5o4)cc3)C[C@@H]21
OUTPUT: rule met

INPUT: // inclusive: inhibition at least 60%? input: C#Cc1ccc(NC(=O)C2(C)CCN2C(=O)Cc2ccc(C(C)(C)C)cc2)cc1 (stereo not drawn)
OUTPUT: rule not met

INPUT: // inclusive: inhibition at least 60%? input: O=C(CCl)Nc1cc2[nH]c(=O)[nH]c2cc1Br
OUTPUT: rule met

INPUT: // inclusive: inhibition at least 60%? input: COc1ccccc1C(=O)Nc1nc(-c2ccc(S(=O)(=O)N3CCOCC3)cc2)cs1
OUTPUT: rule met

INPUT: // inclusive: inhibition at least 60%? input: Cc1c(C#N)c(O)n(CCO)c(=O)c1N=Nc1ccc2c(c1)COC2=O
OUTPUT: rule not met

INPUT: // inclusive: inhibition at least 60%? input: O=C(Nc1cccc(NC(=O)c2ccc([N+](=O)[O-])o2)c1)c1ccco1
OUTPUT: rule met

INPUT: // inclusive: inhibition at least 60%? input: C=C(C(=O)c1ccccc1)C(NC(C)(C)C)c1ccccc1 (stereo not drawn)
OUTPUT: rule met

INPUT: // inclusive: inhibition at least 60%? input: O=C(Nc1c(Cl)ccc2nsnc12)c1ccc([N+](=O)[O-])o1
OUTPUT: rule met

INPUT: // inclusive: inhibition at least 60%? input: CC1(C)N=C(N)N=C(N)N1CCCCc1ccccc1
OUTPUT: rule not met

INPUT: // inclusive: inhibition at least 60%? input: O=C(Cc1c(F)cccc1Cl)Nc1ccncc1
OUTPUT: rule not met

INPUT: // inclusive: inhibition at least 60%? input: Cc1ccc(NC(=O)[C@H](Cc2c[nH]c3ccccc23)NC(=O)[C@@H]2Cc3ccccc3CN2)c(C)c1
OUTPUT: rule not met

INPUT: // inclusive: inhibition at least 60%? input: Nc1nc(-c2ccccc2)[nH]c(=O)c1N=O
OUTPUT: rule not met

INPUT: // inclusive: inhibition at least 60%? input: O=C(Nc1ccc(Nc2ccccc2)cc1)c1cc([N+](=O)[O-])ccc1Cl
OUTPUT: rule not met

INPUT: // inclusive: inhibition at least 60%? input: Clc1ccc(C2=Nn3c(nnc3-c3n[nH]c4c3CCC4)SC2)cc1
OUTPUT: rule not met

INPUT: // inclusive: inhibition at least 60%? input: O=[N+]([O-])c1ccc(/C=N/Nc2ccnc3cc(Cl)ccc23)o1
OUTPUT: rule not met

INPUT: // inclusive: inhibition at least 60%? input: CCCCCCCn1ccc(=N)cc1
OUTPUT: rule met

INPUT: // inclusive: inhibition at least 60%? input: CN(C)CCOc1ccc2c(c1)C(=O)C(=Cc1ncc([N+](=O)[O-])n1C)C2
OUTPUT: rule met

INPUT: // inclusive: inhibition at least 60%? input: O=C(Nc1ccc(Cl)cc1)/C(=C/c1cccc(O)c1)c1nc2ccccc2s1
OUTPUT: rule met

INPUT: // inclusive: inhibition at least 60%? input: CN(C)CCN1C(=O)c2cccc3cc([N+](=O)[O-])cc(c23)C1=O
OUTPUT: rule met

INPUT: // inclusive: inhibition at least 60%? input: O=C(Cc1cccs1)N/N=C\c1ccc([N+](=O)[O-])s1
OUTPUT: rule met

INPUT: // inclusive: inhibition at least 60%? input: Cc1ccc(-n2nc(C)c(NC(=O)CCl)c2C)cc1C
OUTPUT: rule met

INPUT: // inclusive: inhibition at least 60%? input: CC(C)N(c1ccccc1)c1ccc(NC(=O)CCl)cc1
OUTPUT: rule met

INPUT: // inclusive: inhibition at least 60%? input: O=C(CCl)Nc1cc(SCC(O)CO)cc([N+](=O)[O-])c1 (stereo not drawn)
OUTPUT: rule met

INPUT: // inclusive: inhibition at least 60%? input: COc1cc(F)c(C2=CC(=O)CC(C)(C)C2)cc1F
OUTPUT: rule not met

INPUT: // inclusive: inhibition at least 60%? input: COCCn1c(N)c(C(=O)NCC2CCCO2)c2nc3ccccc3nc21 (stereo not drawn)
OUTPUT: rule not met

INPUT: // inclusive: inhibition at least 60%? input: O=C(OC(c1ccccc1)c1nccc2ccccc12)c1ccccc1 (stereo not drawn)
OUTPUT: rule not met

INPUT: // inclusive: inhibition at least 60%? input: COc1cccc(-c2cnc3c(NC(C)=O)cc(-c4ccc(S(C)(=O)=O)cc4)cn23)c1
OUTPUT: rule not met

INPUT: // inclusive: inhibition at least 60%? input: COC(=O)c1ccc(NC(=O)CSc2nncn2-c2cccnc2)cc1
OUTPUT: rule not met

INPUT: // inclusive: inhibition at least 60%? input: N#CCSc1ccccc1NC(=O)CN1C(=O)C2CC=CCC2C1=O (stereo not drawn)
OUTPUT: rule not met

INPUT: // inclusive: inhibition at least 60%? input: O=C(CSc1nncc(=O)[nH]1)Nc1cccc([N+](=O)[O-])c1
OUTPUT: rule not met
